Biological target: CDK9/cyclin T1 (Homo sapiens)
Sequence (P50750 whole entry): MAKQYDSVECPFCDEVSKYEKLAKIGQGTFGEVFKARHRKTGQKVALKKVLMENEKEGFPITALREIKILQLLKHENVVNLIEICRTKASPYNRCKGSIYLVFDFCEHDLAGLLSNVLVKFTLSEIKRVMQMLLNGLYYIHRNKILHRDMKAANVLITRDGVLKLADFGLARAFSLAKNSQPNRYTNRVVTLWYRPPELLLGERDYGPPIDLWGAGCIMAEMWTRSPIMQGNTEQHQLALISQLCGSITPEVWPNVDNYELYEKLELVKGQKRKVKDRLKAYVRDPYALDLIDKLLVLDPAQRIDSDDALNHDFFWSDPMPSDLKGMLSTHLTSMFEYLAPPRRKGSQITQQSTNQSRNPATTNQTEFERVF
Sequence (O60563 whole entry partner): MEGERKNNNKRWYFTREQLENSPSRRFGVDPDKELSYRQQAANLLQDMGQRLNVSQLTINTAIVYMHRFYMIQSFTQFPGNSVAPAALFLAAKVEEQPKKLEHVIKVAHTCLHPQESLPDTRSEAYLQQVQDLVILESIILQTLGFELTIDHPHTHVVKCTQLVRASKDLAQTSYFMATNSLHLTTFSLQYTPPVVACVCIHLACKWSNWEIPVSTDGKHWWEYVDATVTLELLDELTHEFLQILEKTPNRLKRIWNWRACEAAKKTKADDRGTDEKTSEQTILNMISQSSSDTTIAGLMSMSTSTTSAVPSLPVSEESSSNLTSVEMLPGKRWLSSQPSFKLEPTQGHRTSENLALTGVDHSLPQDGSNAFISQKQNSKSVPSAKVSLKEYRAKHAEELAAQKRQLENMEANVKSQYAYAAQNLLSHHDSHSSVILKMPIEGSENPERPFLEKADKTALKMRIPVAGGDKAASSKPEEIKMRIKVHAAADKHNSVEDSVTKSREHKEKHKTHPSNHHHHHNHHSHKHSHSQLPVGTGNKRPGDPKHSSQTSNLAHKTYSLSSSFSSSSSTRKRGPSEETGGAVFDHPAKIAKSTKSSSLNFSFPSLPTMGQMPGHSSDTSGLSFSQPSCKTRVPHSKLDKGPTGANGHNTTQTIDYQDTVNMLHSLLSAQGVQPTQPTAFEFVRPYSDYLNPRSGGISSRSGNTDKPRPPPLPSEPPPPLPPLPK
Assay: LanthaScreen Eu kinase binding assay, CDK9
Conditions: tracer 236 displacement, CDK9/cyclin T1 5 nM, 1 hour; read-out: CDK 9 inhibitory activity (IC50)
pIC50: −log10 of the molar value. Structures can show the parent of a compound that is named as a salt.
Decision: pIC50 >= 8 yields T, all other cases yield F.

| molecule | classification |
| --- | --- |
| O=C(c1sc2cnc(Nc3ccc(N4CCNCC4)cn3)cc2c1C1CCCC1)N1CCC1 | F |

Input: Quick check: does `N#Cc1sc2cnc(Nc3ccc(N4CCNCC4)cc3)cc2c1C1CCCC1` have pIC50 greater than or equal to 8?
Output: T

Input: Okay, and `N#Cc1sc2cnc(Nc3cnc(N4CCOCC4)nc3)cc2c1C1CCCC1` ?
Output: F

Input: Could you do the same for N#Cc1sc2cnc(Nc3ccc(N4CCNCC4)cn3)cc2c1C1CCCC1 [Compound B1s, hydrochloride] , please?
Output: T

Input: Next up: N#Cc1sc2cnc(Nc3ccc(N4CCNCC4)cn3)cc2c1C1CCCC1 [Compound B1]
Output: T

Input: Please give the result for CN(C)C(=O)c1sc2cnc(Nc3ccc(N4CCN(C(=O)C(O)CO)CC4)cn3)cc2c1C1CCCC1 (centres unmarked) too.
Output: T

---

Target: UniProtKB P11802
Sequence (P11802 whole entry): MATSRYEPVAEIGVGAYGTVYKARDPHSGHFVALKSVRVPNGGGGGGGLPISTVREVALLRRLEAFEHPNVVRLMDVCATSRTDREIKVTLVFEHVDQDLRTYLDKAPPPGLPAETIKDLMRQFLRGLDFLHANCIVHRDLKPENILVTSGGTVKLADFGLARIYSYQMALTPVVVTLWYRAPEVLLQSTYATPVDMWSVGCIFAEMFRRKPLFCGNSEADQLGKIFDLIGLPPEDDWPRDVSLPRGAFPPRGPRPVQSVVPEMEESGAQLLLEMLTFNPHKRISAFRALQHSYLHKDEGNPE
Sequence (P24385 whole entry partner): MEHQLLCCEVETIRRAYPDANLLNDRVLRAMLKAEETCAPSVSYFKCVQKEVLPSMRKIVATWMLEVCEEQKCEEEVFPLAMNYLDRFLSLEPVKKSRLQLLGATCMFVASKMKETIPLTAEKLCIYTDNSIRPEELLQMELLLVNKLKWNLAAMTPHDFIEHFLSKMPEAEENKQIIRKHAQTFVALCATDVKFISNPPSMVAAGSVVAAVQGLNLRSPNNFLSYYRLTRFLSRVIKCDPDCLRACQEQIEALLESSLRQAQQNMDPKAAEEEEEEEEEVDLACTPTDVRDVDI
pIC50: −log10 of the molar value.
Decision: pIC50 >= 8 yields yes (1), all other cases yield no (0).

For orientation, consider the following solved cases.
| molecule | classification |
| --- | --- |
| CN(C)C(=O)c1sc2cnc(Nc3ccc(N4CCNCC4)cn3)cc2c1C1CC1 [Compound A16] | no (0) |
| CC(C)c1c(C(=O)N(C)C)sc2cnc(Nc3ccc(N4CCNCC4)cn3)cc12 [Compound A15] | no (0) |
| N#Cc1sc2cnc(Nc3ccc(N4CCNCC4)cn3)cc2c1C1CCCC1 [Compound B1] | yes (1) |

As a next step, examine the molecule that follows.
Input: Dear colleague, could you confirm whether CC1(C)CN(C(=O)c2sc3cnc(Nc4ccc(N5CCNCC5)cn4)cc3c2C2CCCC2)C1 [Compound A18] has pIC50 at or above 8?
Output: no (0)

---

Biological target: CDK2 (Homo sapiens, UniProt P24941)
Each record is given yes (1) if its reported IC50 is strictly below 300 nM. Records at or above 300 nM are given no (0).

Answered cases to consult:
| compound | classification |
| --- | --- |
| N#Cc1sc2cnc(Nc3ccc(N4CCOCC4)cc3)cc2c1C1CCCC1 | yes (1) |
| CN(C)C(=O)c1sc2cnc(Nc3ccc(N4CCNCC4)cn3)cc2c1C1CCC(F)(F)C1 (centres unmarked) | no (0) |
| CC(=O)N1CCN(c2ccc(Nc3cc4c(C5CCCC5)c(C#N)sc4cn3)nc2)CC1 | yes (1) |
| CS(=O)(=O)N1CCN(c2ccc(Nc3cc4c(C5CCCC5)c(C#N)sc4cn3)nc2)CC1 | yes (1) |
| CN(C)C(=O)c1sc2cnc(Nc3ccc(N4CCNCC4)cn3)cc2c1C1CCCC1 | no (0) |

Input: Consider the compound `N#Cc1sc2cnc(Nc3ccc(N4CCOCC4)nc3)cc2c1C1CCCC1` . Is its IC50 strictly less than 300 nM?
Output: yes (1)

Input: Same question for `N#Cc1sc2cnc(Nc3ccc(N4CCNCC4)cc3)cc2c1C1CCCC1` please.
Output: yes (1)
